Values from PubChem BioAssay AID1919016

tested on: NCI-H196 complex spheroid growth, percent test/control; test: Anticancer human tumor NCI-H196 cell line growth inhibition [AhR]; conditions: second compound 1 µM; first compound 10 µM; active compounds read low;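 note: seven days of drug exposure starting three days after plating; 100% = DMSO vehicle control wells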
# label = class 1 if viability, T/C < 80% else class 0

>>> label_class("COc1cc(C2c3cc4c(cc3C(OC3OC5COC(C)OC5C(O)C3O)C3COC(=O)C23)OCO4)cc(OC)c1O (stereo unspecified) + Cc1ccccc1N=Nc1ccc(NC(=O)c2ccnn2C)c(C)c1")
"class 1"
>>> label_class("NS(=O)(=O)OCC1CC(n2ccc3c(NC4CCc5ccccc54)ncnc32)CC1O (stereo unspecified) + Cc1ccccc1N=Nc1ccc(NC(=O)c2ccnn2C)c(C)c1")
"class 1"
>>> label_class("O=C(C=Cc1cccc(S(=O)(=O)Nc2ccccc2)c1)NO + Cc1ccccc1N=Nc1ccc(NC(=O)c2ccnn2C)c(C)c1")
"class 1"
>>> label_class("COc1cc(Nc2ncc3c(n2)-c2ccc(Cl)cc2C(c2c(F)cccc2OC)=NC3)ccc1C(=O)O + CC(CO)NC(=O)c1cc(-c2ccc(Cl)cc2)nn(-c2cnn(C)c2)c1=O")
"class 0"
>>> label_class("COc1ccc([C@@H](O)c2cc(-c3ncnc4cc(N5CCOCC5)ccc34)c(F)cc2Cl)nn1 + Cc1cncc(-c2nc(NCCc3c[nH]c4ccccc34)c3ncn(C(C)C)c3n2)c1")
"class 0"
